System: HepG2 cells
Assay: HepG2 host cell toxicity assay
Type: cell-based
Settings: HepG2, purchased inhibitors, Table 3
metric_name: host cell tox HepG2 pTC50

chem_smiles=CCCCOc1c(C(=O)c2c(F)cc(C)cc2F)c[nH]c2nncc1-2 tested_target="HepG2 cells" metric_name="host cell tox HepG2 pTC50" endpoint_value=<4.4
chem_smiles=Nc1ncnc2c1c(-c1cccc(OCc3ccccc3)c1)cn2[C@H]1C[C@@H](CN2CCC2)C1 tested_target="HepG2 cells" metric_name="host cell tox HepG2 pTC50" endpoint_value=5.5
chem_smiles=COc1cc(OC)c(/C=C/S(=O)(=O)Cc2ccc(OC)c(NCC(=O)O)c2)c(OC)c1 tested_target="HepG2 cells" metric_name="host cell tox HepG2 pTC50" endpoint_value=<4.4

* * *

Tested on: HepG2 cells
Assay: HepG2 host cell toxicity assay
Assay type: cell-based
Details: HepG2, purchased inhibitors, Table 3
metric_name: host cell tox HepG2 pTC50

chem_smiles=COc1ccc2c(c1)[nH]c1c(C)nccc12 tested_target="HepG2 cells" metric_name="host cell tox HepG2 pTC50" endpoint_value=<5.1
chem_smiles=CCc1cnn2c(NCc3ccc[n+]([O-])c3)cc(N3CCCC[C@H]3CCO)nc12 tested_target="HepG2 cells" metric_name="host cell tox HepG2 pTC50" endpoint_value=<4.4
chem_smiles=CNC(=O)c1nn(C)c2c1C(C)(C)Cc1cnc(Nc3ccc(N4CCN(C)CC4)cc3)nc1-2 tested_target="HepG2 cells" metric_name="host cell tox HepG2 pTC50" endpoint_value=5.0
chem_smiles=CCc1cc2c(cc1N1CCC(N3CCOCC3)CC1)C(C)(C)c1[nH]c3cc(C#N)ccc3c1C2=O tested_target="HepG2 cells" metric_name="host cell tox HepG2 pTC50" endpoint_value=<4.4
chem_smiles=CC(C)(C)c1cnc(CSc2cnc(NC(=O)C3CCNCC3)s2)o1 tested_target="HepG2 cells" metric_name="host cell tox HepG2 pTC50" endpoint_value=<4.4
chem_smiles=Cc1ncc(-c2ccnc(Nc3ccc(S(C)(=O)=O)cc3)n2)n1C(C)C tested_target="HepG2 cells" metric_name="host cell tox HepG2 pTC50" endpoint_value=4.9
chem_smiles=COc1cc(N2CCC(N3CCN(C)CC3)CC2)ccc1Nc1ncc(Cl)c(Nc2ccccc2S(=O)(=O)C(C)C)n1 tested_target="HepG2 cells" metric_name="host cell tox HepG2 pTC50" endpoint_value=5.3
chem_smiles=Cn1cc(C2=C(c3ccc(Cl)cc3Cl)C(=O)NC2=O)c2ccccc21 tested_target="HepG2 cells" metric_name="host cell tox HepG2 pTC50" endpoint_value=<4.4

* * *

Known host cell tox HepG2 pTC50 of a selection of compounds
System: HepG2 cells
Test: HepG2 host cell toxicity assay
Assay type: cell-based
Conditions: HepG2, purchased inhibitors, Table 3
metric_name: host cell tox HepG2 pTC50

compound="Nc1nc(Nc2ccc(S(N)(=O)=O)cc2)nn1C(=O)c1c(F)cccc1F [NEU-971, JNJ-77066218]" qualifying_sign== endpoint_value=5.2
compound="CN1CC[C@H](c2c(O)cc(O)c3c(=O)cc(-c4ccccc4Cl)oc23)[C@H](O)C1 [NEU-987, flavopiridol]" qualifying_sign=< endpoint_value=4.4
compound="CC(C)CC(=O)Nc1[nH]nc2c1CN(C(=O)C1CCN(C)CC1)C2(C)C [NEU-1007, PHA-79388727]" qualifying_sign=< endpoint_value=4.4
compound="C[C@]1(O)C[C@@H](c2nc(-c3ccc4ccc(-c5ccccc5)nc4c3)c3c(N)nccn32)C1 [NEU-976, linsitinib]" qualifying_sign== endpoint_value=4.5
compound="CC[C@H](CO)Nc1nc(NCc2ccccc2)c2ncn(C(C)C)c2n1 [NEU-977, roscovitine]" qualifying_sign== endpoint_value=4.5
compound="O=C1NC(=O)C(c2ccccc2[N+](=O)[O-])=C1Nc1ccc(O)c(Cl)c1 [NEU-986, SB 41528622]" qualifying_sign=< endpoint_value=4.4
compound="C[C@@H](Oc1cc(-c2cnn(C3CCNCC3)c2)cnc1N)c1c(Cl)ccc(F)c1Cl [NEU-838, crizotinib]" qualifying_sign== endpoint_value=5.4
